The reported numbers originate from patent US20200317768A1.

Target under test: T1, Human latent myostatin (human, UniProt O14793 25-266; O14793 267-375)
T1 construct: Biotinylated in the ELISAs; also called human myostatin latent form
T1 sequence 1: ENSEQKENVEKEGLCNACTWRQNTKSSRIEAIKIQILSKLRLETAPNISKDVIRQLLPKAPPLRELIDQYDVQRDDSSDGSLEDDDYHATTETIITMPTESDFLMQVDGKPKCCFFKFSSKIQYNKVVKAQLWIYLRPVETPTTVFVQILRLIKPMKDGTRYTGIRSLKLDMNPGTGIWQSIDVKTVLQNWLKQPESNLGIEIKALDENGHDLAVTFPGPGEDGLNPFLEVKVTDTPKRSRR
T1 sequence 2: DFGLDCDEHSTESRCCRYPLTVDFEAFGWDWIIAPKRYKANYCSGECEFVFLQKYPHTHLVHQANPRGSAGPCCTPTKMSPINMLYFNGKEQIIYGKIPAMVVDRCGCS
Test summary: SPR (BIACORE T200), 37 C, pH7.4, avidity condition (capture 185 RU), 1:1 fit; pH 7.4

Binder	koff
MS_M103205H781-SG1/M103202L813-SK1 (antibody, human IgG1, kappa, V domains shown, also called MS1032LO03-SG1; MSLO-03) VH: QVTLKESGPVLVKPTETLTLTCTVSGIDLSHTDISWVRQAPGKGLEWVGIISYAGSTYYMSWAKGRLTISKDTSKNQVVLTMTNMDPVDTATYYCARGVPAYSHGGDLWGQGTLVTVSS VL: DIVMTQSPATLSLSPGERATLSCQTSQSVYHDNWLSWFQQKPGQPPKLLIYWASTLASGVPSRFSGSGSGTDFTLTISSLQPEDAATYYCAGGYGGGRYAFGQGTKVEIKR	0.000192 s⁻¹
MS_M103205H781-SG1/M103202L719-SK1 (antibody, human IgG1, kappa, V domains shown, also called MS1032LO02-SG1; MSLO-02) VH: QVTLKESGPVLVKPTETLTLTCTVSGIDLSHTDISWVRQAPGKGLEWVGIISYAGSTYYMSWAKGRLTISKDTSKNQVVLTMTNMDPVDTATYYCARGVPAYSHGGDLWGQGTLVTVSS VL: DIVMTQSPATLSLSPGERATLSCQSSQSVYHNNWLSWFQQKPGQPPKLLIYWASTLAFGVPSRFSGSGSGTDFTLTISSLQPEDAATYYCAGGYGGGLYAFGQGTKVEIKR	0.000249 s⁻¹
